- TARGET: T1, human MUC1 on cells (DA3-TM transfectants and human cancer cell lines SKOV3, COLO357, HT29 and others) (human, UniProt P15941 24-1255)
- T1 construct: also called MUC1-SEA; surface MUC1
- T1 sequence (P15941 24-1255 limits assumed): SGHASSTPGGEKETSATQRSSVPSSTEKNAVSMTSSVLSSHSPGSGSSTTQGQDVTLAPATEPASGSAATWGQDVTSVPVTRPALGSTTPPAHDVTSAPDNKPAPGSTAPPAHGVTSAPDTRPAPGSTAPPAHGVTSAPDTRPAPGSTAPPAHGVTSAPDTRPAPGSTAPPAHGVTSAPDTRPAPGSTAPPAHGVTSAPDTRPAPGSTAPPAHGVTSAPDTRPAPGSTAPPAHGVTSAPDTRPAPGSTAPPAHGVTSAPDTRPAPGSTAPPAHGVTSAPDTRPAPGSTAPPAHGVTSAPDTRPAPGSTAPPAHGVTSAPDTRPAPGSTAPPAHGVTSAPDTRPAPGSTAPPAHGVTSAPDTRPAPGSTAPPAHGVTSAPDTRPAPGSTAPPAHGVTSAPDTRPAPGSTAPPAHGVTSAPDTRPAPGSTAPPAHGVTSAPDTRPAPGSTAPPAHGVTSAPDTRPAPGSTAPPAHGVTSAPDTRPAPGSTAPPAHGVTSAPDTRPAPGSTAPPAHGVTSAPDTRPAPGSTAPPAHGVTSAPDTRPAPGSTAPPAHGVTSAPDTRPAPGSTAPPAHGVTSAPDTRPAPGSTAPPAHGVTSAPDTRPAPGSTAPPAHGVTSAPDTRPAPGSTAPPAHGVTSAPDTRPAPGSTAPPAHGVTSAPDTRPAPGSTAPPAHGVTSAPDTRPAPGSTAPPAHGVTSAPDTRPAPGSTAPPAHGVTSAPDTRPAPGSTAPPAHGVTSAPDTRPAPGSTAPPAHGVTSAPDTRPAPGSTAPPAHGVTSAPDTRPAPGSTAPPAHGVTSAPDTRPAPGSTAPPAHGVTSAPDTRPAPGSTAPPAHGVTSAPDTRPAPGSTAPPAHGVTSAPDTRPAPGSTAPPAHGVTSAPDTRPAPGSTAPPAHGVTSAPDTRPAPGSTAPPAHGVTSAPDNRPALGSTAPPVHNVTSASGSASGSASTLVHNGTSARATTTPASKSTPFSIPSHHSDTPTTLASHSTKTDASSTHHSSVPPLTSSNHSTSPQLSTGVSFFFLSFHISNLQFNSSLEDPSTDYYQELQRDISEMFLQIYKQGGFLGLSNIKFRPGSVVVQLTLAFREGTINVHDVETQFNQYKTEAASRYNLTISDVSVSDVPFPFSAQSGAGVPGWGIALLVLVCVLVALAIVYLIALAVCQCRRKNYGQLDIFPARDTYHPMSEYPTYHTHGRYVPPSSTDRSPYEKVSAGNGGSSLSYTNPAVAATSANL
- PROTOCOL: flow cytometry on DA3-TM cells; table row 4 of 5, about 1.2 nM by the matching point in FIG. 3A
Reported Geometric Mean : FL6-A values for the following binders.
A bare number is all that is needed in reply.

Some binders with recorded Geometric Mean : FL6-A:
HM5 LM2 variant of humanized anti-MUC1 antibody SP66 (antibody, V domains shown, Humanized IgG expressed in CHO cells; only variable domains tied to the variant) VH: EIQLVQSGAEVKKPGSSVKVSCKVTGHSITRGSSWHWMRQAPGQGLEWIGYIHYGGGTSYNPSLKSRITITRDTSTNTFYMELSSLRSEDTAFYFCARYSYDITYRWFFDVWGQGTLVTVSS VL: DIQMTQSPSTLSASVGDRVTITCRASQNIGTSIHWYQQKPGKAPKLLIKRASESISGVPSRFSGSGSGTEFTLTISSLQPDDFATYYCQQNNNWPLTFGQGTKVEVK    14600
HM2 LM2 variant of humanized anti-MUC1 antibody SP66 (antibody, V domains shown, Humanized IgG expressed in CHO cells; only variable domains tied to the variant) VH: EIQLVQSGAEVKKPGSSVKVSCKVTGHSITRGSSWHWMRQAPGQGLEWIGYIHYGGGTSYNPSLKSRITITRDTSTNTAYMELSSLRSEDTAFYFCARYSYDITYRWFFDVWGQGTLVTVSS VL: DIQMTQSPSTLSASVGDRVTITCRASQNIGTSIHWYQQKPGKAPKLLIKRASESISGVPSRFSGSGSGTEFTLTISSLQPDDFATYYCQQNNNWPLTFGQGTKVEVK    6400

-- ask Consider the binder HM2 LM1 variant of humanized anti-MUC1 antibody SP66 (antibody, V domains shown, Humanized IgG expressed in CHO cells; only variable domains tied to the variant) VH: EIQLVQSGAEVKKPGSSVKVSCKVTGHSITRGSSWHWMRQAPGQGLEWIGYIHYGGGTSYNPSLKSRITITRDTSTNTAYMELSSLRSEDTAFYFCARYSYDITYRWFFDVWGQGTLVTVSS VL: DIQMTQSPSTLSASVGDRVTITCRASQNIGTSIHWFQQKPGKAPKLLIKRASESISGVPSRFSGSGSGTEFTLTISSLQPDDFATYYCQQNNNWPLTFGQGTKVEVK and give its measured Geometric Mean : FL6-A.
-- reply 1870

-- ask Param item = HM4 LM3 variant of humanized anti-MUC1 antibody SP66 (antibody, V domains shown, Humanized IgG expressed in CHO cells; only variable domains tied to the variant) VH: EIQLVQSGAEVKKPGSSVKVSCKVTGHSITRGSSWHWMRQAPGQGLEWIGYIHYGGGTSYNPSLKSRATLTRDTSTNTFYMELSSLRSEDTAFYFCARYSYDITYRWFFDVWGQGTLVTVSS VL: DIQMTQSPSTLSASVGDRVTITCRASQNIGTSIHWYQQKPGKAPKLLIKYASESISGVPSRFSGSGSGTEFTLTISSLQPDDFATYYCQQNNNWPLTFGQGTKVEVK ; retrieve measured Geometric Mean : FL6-A.
-- reply 9700
